System: SK-MEL-2
test.description: NCI tumour cell line growth inhibition, 48 h
The source made the active and inactive calls. Rule as the data show it: active = GI50 up to about 1.1 µM and inactive = higher. Peptide text beside a SMILES is read from it. * marks the point of attachment. OSu = O=C1CCC(=O)N1O*
Outcomes: Y = active, N = inactive

compound: O=[N+]([O-])c1ccc(-c2csc3nc(-c4ccccc4)nn23)cc1
qualitative.label: N

compound: CC1=C(C(=O)Nc2ccccc2C)C(c2ccc([N+](=O)[O-])cc2)C(C(=O)Nc2ccccc2C)=C(C)N1
qualitative.label: N

compound: c1ccc(CN2CCN3CCN(CC2)CCN(Cc2ccccc2)CC3)cc1
qualitative.label: N

compound: N#C/C(N)=C(C#N)/N=C/NCCO
qualitative.label: N

compound: NCCCCC(NC(=O)C(N)Cc1ccc(O)cc1)C(=O)NC(Cc1ccc(O)cc1)C(=O)NC(CCCCN)C(=O)ON1C(=O)CCC1=O (stereo unspecified) (H-YKYK-OSu; configuration not given here)
qualitative.label: N

compound: CC(=O)CC(=O)CCCC(=O)Nc1ccc(Cl)cc1Cl
qualitative.label: N

compound: CCc1c(-c2ccc(OC)cc2)oc(OC)c(C)c1=O
qualitative.label: N

compound: O=C1/C(=C/c2ccc(Br)cc2)CCC/C1=C\c1ccc(Br)cc1
qualitative.label: N

compound: Cc1nc2ccc(S(=O)(=O)O)cc2c(=O)n1-c1ccc(C(=O)NN2C(=O)C(Cl)C2c2cccs2)cc1 (stereo unspecified)
qualitative.label: N

compound: O=C(Nc1ccccc1C(=O)NCCCO)/C(=C/c1ccccc1O)NC(=O)c1ccccc1
qualitative.label: N

compound: O=C(Nc1ccc(Cl)cc1)NS(=O)(=O)c1ccc2c(c1)CCC2
qualitative.label: N

compound: CCOC(=O)C(=O)Nc1ccc(C)c(C)c1
qualitative.label: N

compound: Oc1cc(-c2ccc3ccccc3c2)nc2ncc(Cl)cc12
qualitative.label: N

compound: Cc1ccccc1NC(=O)C1C(=O)N(c2ccccc2C)C(=O)/C1=N\N (stereo unspecified)
qualitative.label: N

compound: Cc1ccc(SCC(=O)C2=C(O)CCCC2=O)cc1
qualitative.label: N

compound: CN(C(=O)CCC(=O)O)c1ccccc1C(=O)O
qualitative.label: N

compound: Cc1cc(Cl)ccc1NC(=O)CC1SC(N)=NC1=O (stereo unspecified)
qualitative.label: N

compound: COC1CC(C)C(OC)C2=CC(=O)C=C(NC(=O)/C(C)=C/C=C\C(C)C(OC(N)=O)/C(C)=C\C(C)C1OC)C2=O (stereo unspecified)
qualitative.label: Y

compound: Cc1nnc(N)nc1/C=C\c1ccc(Cl)cc1Cl
qualitative.label: N

compound: CC(=O)OC1CCC2(C)C(CCC3C2CC(=O)C2(C)C3CC(N3CC3)C2C(C)=O)C1 (stereo unspecified)
qualitative.label: N

compound: O=C(O)c1ccc(C2COc3ccc(Cl)cc3C2)cc1 (stereo unspecified)
qualitative.label: N

----------
The entries below come with measured GI50 values attached.
System: BT-549
test.description: NCI tumour cell line growth inhibition, 48 h
The source made the active and inactive calls. Rule as the data show it: active = GI50 up to about 1.1 µM and inactive = higher.

compound.structure.string: COc1ccc(-c2cc(O)c3c(C)ccnc3n2)cc1
target: BT-549
GI50: 33.7 µM (inactive)

compound.structure.string: N#C/C(N)=C(C#N)/N=C/NCCO
target: BT-549
GI50: > 100 µM (inactive)

compound.structure.string: CCNc1nnc(-c2ccccc2Nc2ccccc2-c2nnc(NCC)s2)s1
target: BT-549
GI50: 19.6 µM (inactive)

compound.structure.string: CC(=O)Nc1ccc(NC(=O)c2c(Cl)c(Cl)c(Cl)c(Cl)c2-c2nc3ccccc3[nH]2)cc1
target: BT-549
GI50: 43.1 µM (inactive)

compound.structure.string: O=[N+]([O-])C(=C(N1CCCCC1)N1CCCCC1)/C(Cl)=C(\Cl)[N+](=O)[O-]
target: BT-549
GI50: 6.95 µM (inactive)

compound.structure.string: CCCCCCc1cc2cc(C(=O)Nc3cccc(F)c3)c(=N)oc2cc1O
target: BT-549
GI50: 2.63 µM (inactive)
